# System: ZAK;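 note: KINOMEscan scanMAX binding as percent activity remaining versus control; lower means stronger binding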
# condition-details: Compound Concentration (nM):1000
measurement-name: Percent Control (%)
Please state the figure in %; there is no need to write the unit.

COc1cccc(-c2c[nH]c3c(N/N=C/c4ccncc4)ncnc23)c1 [GW814408X]	17
Cc1cc(O)cc(C)c1/C=C/c1cncc(C(N)=O)c1 [GW435821X]	87
COc1cccc(-n2ncc3c(N/N=C/c4ccncc4)ncnc32)c1 [GW784752X]	39
O=C1Nc2ccc(C(=O)c3ccco3)cc2C1=Cc1cc(Cl)c(O)c(Cl)c1 [GW406108X]	100
CN1CCN(C(=O)c2ccc(NC(=O)Nc3ccc(N(C)c4ccnc(Nc5ccc(CS(C)(=O)=O)cc5)n4)cc3)cc2)CC1.Cl [GW830263A]	86
Nc1ncnc2occ(-c3ccc(NC(=O)Nc4cc(C(F)(F)F)ccc4F)cc3)c12 [GW770249X]	46
CC1=C(C(=O)Nc2ccc3[nH]ncc3c2)C(c2ccc(Cl)c(Cl)c2)CC(=O)N1 (stereo not drawn) [GSK299115A]	100
Cl.O=C(O[C@H]1CN[C@H](C#Cc2cc3ncnc(Nc4ccc5c(cnn5Cc5ccccc5)c4)c3s2)C1)N1CCOCC1 [GSK200398A]	82

Percent Control for ZAK with input COC(=O)Nc1nc2ccc(Oc3ccc(NC(=O)Nc4cc(C(F)(F)F)ccc4F)cc3)cc2s1.Cl [GW693917A] equals 6.8

Percent Control for ZAK with input CC1=C(C(=O)Nc2ccc3[nH]ncc3c2)C(c2ccc3ccccc3c2)CC(=O)N1 (stereo not drawn) [GSK270822A] equals 92

Percent Control for ZAK with input COc1ccc(COc2ccc(Cc3cnc(N)nc3N)cc2OC)cc1 [GW632580X] equals 87

Percent Control for ZAK with input Cl.c1ccc(Cc2nc3ccc(Nc4ncnc5ccccc45)cc3[nH]2)cc1 [GR269666A] equals 100

Percent Control for ZAK with input COc1ccccc1-c1cc(/C=C2\C(=O)Nc3ncc(Br)cc32)cc(Br)c1O [GW442130X] equals 100

Percent Control for ZAK with input NS(=O)(=O)c1ccc(Nc2ncc(-c3ccccc3)o2)cc1 [GW572399X] equals 100

Percent Control for ZAK with input C[C@@H](Oc1cc(-n2cnc3ccc(OC4CCN(C)CC4)cc32)sc1C(N)=O)c1ccccc1Cl [GSK579289A] equals 69
